# Protocol notes: LNP average particle size and polydispersity by dynamic light scattering
# Format: physicochemical
# Test settings: LNP with the compound as amine lipid; Expt. 5; composition ratio (mol %) 50/10/38.5/1.5
Please go through the items and note down their Z-Ave Size (nm).
Number in nm, nothing else.

What does the record list as Z-Ave Size (nm) for CCCCC/C=C\C/C=C\CCCCCCCC(=O)OCC(COC(=O)CCC(OCCCCCCCC)OCCCCCCCC)COC(=O)OCCCN(CC)CC (stereo not drawn) [Compound 49, reference compound] ?
83.00

What does the record list as Z-Ave Size (nm) for CCCCC/C=C\C/C=C\CCCCCCCC(=O)OCC(COC(=O)CCCCCCC/C=C\C/C=C\CCCCC)OC(=O)CCC(CCCCCC)OC(=O)NCCN1CCC1 (stereo not drawn) ?
104.00

What does the record list as Z-Ave Size (nm) for CCCCC/C=C\C/C=C\CCCCCCCC(=O)OCC(COC(=O)CCCCCCC/C=C\C/C=C\CCCCC)OC(=O)CCC(CCCCCC)OC(=O)NCCN1CCCC1 (racemic) ?
103.00

What does the record list as Z-Ave Size (nm) for CCCCC/C=C\C/C=C\CCCCCCCC(=O)OCC(COC(=O)CCCCCCC/C=C\C/C=C\CCCCC)OC(=O)CCC(CCCCCC)OC(=O)NC(C)(C)CN1CCCC1 (stereo not drawn) ?
75.00

What does the record list as Z-Ave Size (nm) for CCCCC/C=C\C/C=C\CCCCCCCC(=O)OCC(COC(=O)CCCCCCC/C=C\C/C=C\CCCCC)OC(=O)CCC(CCCCCC)OC(=O)NCCN1CCCCC1 (stereo not drawn) ?
91.00

What does the record list as Z-Ave Size (nm) for CCCCC/C=C\C/C=C\CCCCCCCC(=O)OCC(COC(=O)CCCCCCC/C=C\C/C=C\CCCCC)OC(=O)CCC(CCCCCC)OC(=O)NC1CN(C)C1 (stereo not drawn) ?
91.00

---

# Protocol notes: RNA encapsulation efficiency of LNP (Ribogreen fluorescence assay)
# Assay type: physicochemical
# Test settings: LNP with the compound as amine lipid; Expt. 9; composition ratio (mol %) 50/9/38/3 for Cmpnd 49, 50/10/38.5/1.5 for the others
Please go through the items and note down their Encapsulation (%).
Number in %, nothing else.

What does the record list as Encapsulation (%) for CCCCC/C=C\C/C=C\CCCCCCCC(=O)OCC(COC(=O)CCCCCCC/C=C\C/C=C\CCCCC)OC(=O)CCC(CCC(C)CCCC(C)C)OC(=O)NCCN1CCCC1 (centres unmarked) [Compound 105] ?
99

What does the record list as Encapsulation (%) for CCCCC/C=C\C/C=C\CCCCCCCC(=O)OCC(COC(=O)CCCCCCC/C=C\C/C=C\CCCCC)OC(=O)CCC(CCCCCC)OC(=O)NCCN1CCCC1 (racemic) [Compound 50] ?
97

What does the record list as Encapsulation (%) for CCCCC/C=C\C/C=C\CCCCCCCC(=O)OCC(COC(=O)CCCCCCC/C=C\C/C=C\CCCCC)OC(=O)CC[C@H](CCCCCC)OC(=O)NCCN1CCCC1 [Compound 89] ?
98

What does the record list as Encapsulation (%) for CCCCC/C=C\C/C=C\CCCCCCCC(=O)OCC(COC(=O)CCCCCCC/C=C\C/C=C\CCCCC)OC(=O)CCC(CC(CC)CC)OC(=O)NCCN1CCCC1 (centres unmarked) [Compound 106] ?
99

What does the record list as Encapsulation (%) for CCCCC/C=C\C/C=C\CCCCCCCC(=O)OCC(COC(=O)CCCCCCC/C=C\C/C=C\CCCCC)OC(=O)CCC(CC/C=C\CCCCC)OC(=O)NCCN(C)CC (centres unmarked) [Compound 107] ?
98

Data provenance is patent US12077483B2.
